- Test system: Hs-578T
- measurementNotes: NCI tumour cell line growth inhibition, 48 h
Calls of active or inactive are those of the source. Rule as the data show it: active = GI50 up to about 1.1 µM and inactive = higher.
Outcome codes: active, inactive

1. O=[N+]([O-])c1ccc(/C=C(/c2ccc([N+](=O)[O-])o2)S(=O)(=O)c2ccccc2)cc1; inactive
2. CC1=NN(C(=O)c2ccccc2O)C(c2ccccc2Cl)C1C(=O)Nc1ccccc1 (stereo not given); active
3. C=C1C(=O)O[C@H]2C[C@@]3(C)[C@H](O)CCC(=C)[C@@H]3[C@@H](OC(C)=O)[C@H]12; inactive
4. Cc1c(C(=O)C(=O)c2ccccc2)c(C)c(C(=O)C(=O)c2ccccc2)c(C)c1C(=O)C(=O)c1ccccc1; inactive
5. O=[N+]([O-])c1ccc(C2=NOC(c3ccc(Cl)cc3)N2C23CC4CC(CC(C4)C2)C3)cc1 (stereo not given); inactive

---

- System: SNB-19
- measurementNotes: NCI tumour cell line growth inhibition, 48 h
Activity calls are given as the source filed them. No stated cut-off is given here; in the data, active = GI50 up to about 1.1 µM and inactive = higher.
resultType: GI50

1. O=c1c2nc3ccccc3c(=O)n2ncn1-c1ccccc1Cl; > 100 µM (inactive)
2. Cc1cc(-c2nc3cccc(F)c3s2)ccc1N; > 80.2 µM (inactive)
3. COC(=O)c1c(C)cc(OC)c(C/C=C(\C)CCCc2coc(C=C(C)C)c2)c1OC; > 100 µM (inactive)
4. COc1ccc(/C=C2\N=C3NC(=O)C(N4CCCCC4)=C(N)N3C2=O)cc1; > 100 µM (inactive)
5. Oc1c2cc(Cl)cc1COCc1cc(Cl)cc(c1O)COCc1cc(Cl)cc(c1O)COC2; 28 µM (inactive)
6. CC(C)(C)C(=O)OCC1C(=O)OCC1C(=O)N1Cc2cc3ccccc3nc2C1 (stereo unspecified); 18.3 µM (inactive)

---

# GI50 values compiled below
- System: OVCAR-3
- measurementNotes: NCI tumour cell line growth inhibition, 48 h
Calls of active or inactive are those of the source. No stated cut-off is given here; in the data, active = GI50 up to about 1.1 µM and inactive = higher.
resultType: GI50

1) O=C(Cn1c(C(=O)/C=C/c2ccco2)nc2ccccc21)c1ccc(Cl)cc1; 31.5 µM (inactive)
2) O=c1n(N=[S+]([O-])(c2ccccc2)c2ccccc2)c(=O)n2n1C1C=CC2CC1; > 100 µM (inactive)
3) O=C(O)c1cc(-c2ccc3cc4c(cc3c2)OCO4)nc2ccccc12; 41.6 µM (inactive)
4) COC(=O)C(=O)c1cc2ccccc2n1S(=O)(=O)c1ccccc1; > 100 µM (inactive)
5) COC(C)(C)C(O)C(O)C[C@H](C)C1CC=C2C1(C)CCC1[C@@]3(C)CCC(OC(C)=O)C(C)(C)C3CC(OC3OC(COC(C)=O)C(O)C(O)C3O)[C@@]21C (stereo not given in full); 2.94 µM (inactive)
6) CCOC(=O)c1sc(N)nc1N1CCCC1; > 100 µM (inactive)
7) O=c1c2ccc(Cl)cc2oc2c(CSc3ccccc3)cccc12; > 40.8 µM (inactive)
8) COc1cc(Cc2cc3c(c(C(=O)O)c2Br)OCO3)cc(OC)c1OC; > 100 µM (inactive)
9) c1ccc(C2CC(NC3CCCCC3)=Nc3ccccc3N2)cc1 (stereo not given); > 100 µM (inactive)
10) CC1NOC(=O)C1/N=N/c1cccc(Cl)c1 (stereo not given); 22.5 µM (inactive)

---

- System: Malme-3M
- measurementNotes: NCI tumour cell line growth inhibition, 48 h
Active and inactive are the calls of the source. Rule as the data show it: active = GI50 up to about 1.1 µM and inactive = higher.
Outcome codes: active, inactive

1. COC(=O)C(Cc1ccccc1)NP(=O)(O)OCC1OC(n2ccc(N)nc2=O)C(O)C1O (stereo not drawn); inactive
2. CC(=O)Nc1[nH]c(=O)[nH]c(=O)c1N(C(C)=O)C(C)=O; inactive
3. Cc1nc2c(=O)n3c4c(cccc4c2o1)CCC3; inactive
4. Cc1ccc(C2SCC(=O)N2NC(=O)c2ccncc2)s1 (stereo not drawn); inactive
5. CCCCc1ccc(Nc2nc(Cl)c3c(ncn3COCCOC(C)=O)n2)cc1; inactive
6. C=C(C)C1CC=C(C)C(O)([C@@]2(O)C[C@H](C(=C)C)CC=C2C)C1 (stereo partly drawn); inactive
7. c1ccc2c(c1)CCc1c-2n(CCN2CCCCC2)c2ccccc12; inactive
8. C/C(=N\NC(=S)N1CCCC1)c1nc2cccnc2[nH]1; active
9. O=c1c2ccc(Cl)cc2oc2c(CSc3ccccc3)cccc12; inactive
10. CCCCCCCCCCCOCCC1C(C(C)OCCN2CCCC2)OC2OC(C)(C)OC21 (stereo not drawn); inactive
11. c1ccc(C2CC(NC3CCCCC3)=Nc3ccccc3N2)cc1 (stereo not drawn); inactive
12. COc1ccc(/C=C(/C)[N+](=O)[O-])cc1; inactive
13. CCOC1NC(=O)Oc2cc3ccccc3cc21 (stereo not drawn); inactive
14. CC(SC(=S)N1CCOCC1)C(=O)Nc1nnc(-c2ccc(Cl)cc2)o1 (stereo not drawn); inactive
15. C#CC(C)(C)OC(=O)C(=[N+]=[N-])C(C)=O; inactive
16. O=C1CSC(c2cccc(Oc3ccccc3)c2)N1c1cc(Cl)ccc1Cl (stereo not drawn); inactive
17. COc1cc([C@@H]2c3cc4c(cc3[C@@H](Nc3ccc(Cl)cc3C(=O)c3ccccc3)[C@H]3COC(=O)[C@H]23)OCO4)cc(OC)c1OC; active
18. COC(=O)C(CC(C)=O)CS(=O)(=O)CC(=O)C(=O)Nc1cccc([N+](=O)[O-])c1 (stereo not drawn); inactive
19. CN(C)c1ccc(/C=C(\C#N)c2nc(-c3cc4ccccc4oc3=O)cs2)cc1; inactive
20. O=C1CCCCC/C1=C\c1cccc(F)c1; inactive
21. Cc1ccc(S(=O)(=O)n2ccc(-c3ccc4ccn(S(=O)(=O)c5ccc(C)cc5)c4c3)c2)cc1; inactive
22. COc1ccc2nc3n(c2c1)C(=O)c1ccccc1-3; inactive
23. FC(F)(F)c1ccc2nc(Nc3ccc(Cl)c(Cl)c3)c(-c3ccccc3)nc2c1; inactive
24. N#Cc1c(-c2cccc(Br)c2)cc(-c2ccc(Cl)cc2)nc1N; inactive
25. CC1NOC(=O)C1/N=N/c1cccc(Cl)c1 (stereo not drawn); inactive
26. COc1cc(C(=O)NC2CCc3cc(OC)c(OC)c(OC)c3-c3ccc(OC)c(=O)cc32)cc(OC)c1OC (stereo not drawn); active
27. Cc1ccc(CCC(=O)C(=O)O)s1; inactive
28. CC1(C)N=C(Oc2ccccc2)n2nccc2N1; inactive
29. CS(=O)(=O)CC(=O)c1ccccc1; inactive
30. CCN(CC)CCC/N=c1\c2cc(OC)ccc2[nH]c2c([N+](=O)[O-])ccc(NCCCN(CC)CC)c12; inactive
31. Cc1nc(N/N=C/c2ccccc2Cl)[nH]c(=O)c1CCO; inactive
32. CCOC(=O)c1[nH]c(-c2[nH]c(-c3[nH]c(-c4[nH]c(C(=O)OCC)c(C)c4C(=O)OCC)c(C(=O)OCC)c3C)c(C)c2C(=O)OCC)c(C(=O)OCC)c1C; inactive
33. COc1ccc(C(=O)C(c2ccc(OC)cc2)C2(O)C(=O)Nc3c(Cl)cc(Cl)cc32)cc1 (stereo not drawn); inactive
34. OC1[C@@H]2[C@@H](O)[C@H](O)[C@@H](O)N2C[C@@H]1O (stereo partly drawn); inactive
35. N#Cc1c(CC(=O)O)cc(=O)n2c1[nH]c1ccccc12; inactive
36. Cc1cc2c(cc1C)C(=O)c1ncccc1C2=O; inactive
37. Oc1cccc2cc(Cl)cnc12; inactive
38. O=c1cc(/N=N\c2ccc(Br)cc2)[nH]c(=S)[nH]1; inactive
39. COc1ccccc1C(=O)NCC1CCCN2CCCCC12 (stereo not drawn); inactive
40. O=C(O)c1ccc(NS(=O)(=O)Cc2ccccc2)cc1; inactive
41. COC1OC(CS(=O)(=O)O)C(O)C(O)C1O (stereo not drawn); inactive
42. CCCCN(CCCC)CC(C(=O)Nc1ccccc1)/C(C)=N\NC(=O)c1ccncc1 (stereo not drawn); inactive
43. CC(CC(C)[C@H]1CCC2[C@H]3C(CC(=O)[C@@]21C)[C@@]1(C)CCC(O)C[C@H]1C[C@@H]3O)C(=O)O (stereo partly drawn); inactive

---

- System: PC-3
- measurementNotes: NCI tumour cell line growth inhibition, 48 h
Activity calls are given as the source filed them. Cut-off read from the data, not from the text of the source: active = GI50 up to about 1.1 µM and inactive = higher.
resultType: GI50

1) CC(C)(C)c1ccc(OC(=O)Nc2ccc(O)c(C(=O)O)c2)cc1; > 100 µM (inactive)
2) Cc1nc(O)nc2nc3cc(Cl)cc(Cl)c3c(NC(C)(CO)CO)c12; > 100 µM (inactive)
3) O=[N+]([O-])c1ccc(-n2nc3ccc4c(no[n+]4[O-])c3n2)cc1; 5.55 µM (inactive)
4) Cc1ccc(Cc2nn(C)c(=O)n2N)cc1; > 100 µM (inactive)
5) Cc1ccc(S(=O)(=O)[N-]C2C(=O)c3ccccc3C(=O)C2[n+]2cccc(C(N)=O)c2)cc1 (stereo not given); > 100 µM (inactive)
6) CN(/N=C/c1ccc(C(=O)O)cc1)C1=NCCCCN1; > 100 µM (inactive)
7) CCOC(=O)C1=c2[nH]c3cccc4cccc(c43)n2C=C(C(C)=O)C1CC(C)=O (stereo not given); > 100 µM (inactive)
8) O=C1CC(=O)NC(NN2C(=O)CSC2C(=O)c2ccco2)=N1 (stereo not given); > 100 µM (inactive)
9) CC1=NN(C(=O)CC(=O)Nc2ccccc2C)C(=O)C1/N=N\c1ccc(S(=O)(=O)c2ccc(/N=N/C3C(=O)N(C(=O)CC(=O)Nc4ccccc4C)N=C3C)cc2)cc1 (stereo not given); > 100 µM (inactive)
10) COc1ccc(C(=O)/C=C/c2ccc(OCC(=O)N3CCN(c4ccccc4)CC3)cc2)cc1OC; 3.56 µM (inactive)
